List of apparent KD of MS2 coat protein values.
system: MS2 coat protein; assay: apparent KD of MS2 coat protein; designed switch direction (-1 OFF switch, 1 ON switch): -1; higher = weaker reporter binding; conditions: Eterna round: R95; input ligand: FMN 200 uM
Write the number in nM without appending the unit.

>>> quantitative_result("GGUUGGCGAGGAUAUACAUGAGGAUCACCCAUGUGAGAGAAAAAAGUGAGGAAGAAAAGUAGAAGGCGUUGACG [salish99_ex3_r3_052] (puzzle: Exclusion 3)")
66.2
>>> quantitative_result("UAAUAAAAGGAGGAUAUCGUAUCGGAAACGAUACGAGAAGGCUUAACAUGAGGAUCACCCAUGUUCCUCAAUAA [Mat - Exclusion 6 - Eli Mod - D90] (puzzle: Exclusion 6)")
59.3
>>> quantitative_result("CUUAGCCUAAAAUCACGCAAGCUUUUUGCUUGUCUUAAGACAUGAGGAUCACCCAUGUCCGGGCUGAACUUAUGGAA [Zarebe] (puzzle: Sensor v3, turn-off variant 2)")
17.5
>>> quantitative_result("CAUACUAAAGUCAGGAUAUGCGGUCGAAUACGGGUGUAGAAGGGACAUGAGGAUCACCCAUGUAGAUAGUAAAG [EX-4 Malc #18] (puzzle: Brourd's mod of Exclusion 4)")
93.1
>>> quantitative_result("AAAAUAAAAGUCAGGAUAUUCCUACAACGACUAAGGAAGAAGGGACAUGAGGAUCACCCAUGUGGUCUUCCGAA [Onesti] (puzzle: Brourd's mod of Exclusion 4)")
42.5
>>> quantitative_result("GAUCCUUAAGUCAGGAUAUCAAGCAAACUCAAAAUUGAGAAGGGACAUGAGGAUCACCCAUGUCACCGAAAUAA [Reteisus] (puzzle: Brourd's mod of Exclusion 4)")
10.1

query: For the sequence AAUACACAUGAGGAUCACCCAUGUUAGGAUAUGAGCAGACAGACAGACAGACAGACGAUCAGAAGGAAUAGGAA [Excls1-V] (puzzle: Exclusion 1) , what apparent KD of MS2 coat protein is on record?
result: 26.1

query: For the sequence AAGGUGUUAGGAUAUCGGAGGUUGAGGCAGACGGGAAUUUUCGAGAAGGAACAUGAGGAUCACCCAUGUAGUAG [JR_Exclu4_Sub038] (puzzle: Exclusion 4) , what apparent KD of MS2 coat protein is on record?
result: 19.1

query: For the sequence UUUUAACAUGAGGAUCACCCAUGUGAGGAUAUCGAAUUUUAUAUUAAUAUUAAUAAAACGAGAAGGCACAUUUU [JMF 8] (puzzle: Exclusion 1) , what apparent KD of MS2 coat protein is on record?
result: 60.8

query: For the sequence AAAUAACAAGCGAGAUCCUACAUGAGGAUCACCCAUGUGCUCGUCUUAAUAAGUACUAUCACGAAAGUGAUAGUACA [Mat - Sensor v3 - turn-off var 1 - Eli Mod - D67] (puzzle: Sensor v3, turn-off variant 1) , what apparent KD of MS2 coat protein is on record?
result: 16.6

query: For the sequence AUUAUAACAUAGGAUAUCGAAUUUAUCAUUUAACGAGAAGGAUGAACAUGAGGAUCACCCAUGUGGUAUCAUGG [Mat - Exclusion 6 - JL Mod - D3] (puzzle: Exclusion 6) , what apparent KD of MS2 coat protein is on record?
result: 55
